Study target: human CB1 on stably transfected CB1 CHO cells (human, UniProt P21554 1-472)
Sequence (P21554 whole entry): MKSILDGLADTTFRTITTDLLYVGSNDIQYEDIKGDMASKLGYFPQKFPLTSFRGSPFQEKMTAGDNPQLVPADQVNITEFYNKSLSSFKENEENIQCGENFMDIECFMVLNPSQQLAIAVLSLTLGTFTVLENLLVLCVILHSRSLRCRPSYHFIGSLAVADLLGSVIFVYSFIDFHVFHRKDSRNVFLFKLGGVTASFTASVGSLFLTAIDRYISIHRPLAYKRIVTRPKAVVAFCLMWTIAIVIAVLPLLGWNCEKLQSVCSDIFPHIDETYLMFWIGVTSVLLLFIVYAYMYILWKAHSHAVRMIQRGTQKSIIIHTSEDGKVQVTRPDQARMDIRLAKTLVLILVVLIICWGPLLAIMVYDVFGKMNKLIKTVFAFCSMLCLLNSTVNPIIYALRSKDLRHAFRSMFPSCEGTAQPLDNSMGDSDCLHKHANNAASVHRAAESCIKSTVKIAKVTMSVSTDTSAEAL
Assay overview: cell-based or functional assay
Reported property: IC50 (nM, n = 4), antagonist activity, TR-FRET cAMP assay

Binder: LIBC674090-1 (IgG1 SEFL2 mAb) (antibody, V domains shown) VH: QVQLQESGPGLVKPSQTLSLTCTVSGGSIRRGGDYWSWIRQHPGKGLEWIGHIYYAGSTAYNPNFRGRVRISVNTYKNQFSLKLSSVTAADTAVYYCARGYDTSGYSYYYYGLDVWGQGTTVTVSS VL: DIVMTQSPLSLPVTPGEPASISCRSSQSLLHRSGYNYLDWYLQKPGQSPQLLIYQGSNRASGVPDRFSGSGSGTDFTLKISRVEAEDVGVYYCMQSLQTPRTFGQGTKVEIKR
Result: 1.76 nM
//
Binder: LIBC681737-1(LC:P12S) (IgG1 SEFL2 mAb) (antibody, V domains shown) VH: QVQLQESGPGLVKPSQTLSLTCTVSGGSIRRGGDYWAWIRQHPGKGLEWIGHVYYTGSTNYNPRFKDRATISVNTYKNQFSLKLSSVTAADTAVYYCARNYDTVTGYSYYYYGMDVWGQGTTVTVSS VL: DIQMTQSPSSLSASVGDRVTITCRASQSISSYLNWYQQKPGKAPKLLIYSARRLASGVPSRFSGSGSGTDFTLTISSLQPEDFATYYCQQYYHPPITFGGGTKVEIKR
Result: 0.55 nM
//
Binder: LIBC681593-1 (IgG1 SEFL2 mAb) (antibody, V domains shown) VH: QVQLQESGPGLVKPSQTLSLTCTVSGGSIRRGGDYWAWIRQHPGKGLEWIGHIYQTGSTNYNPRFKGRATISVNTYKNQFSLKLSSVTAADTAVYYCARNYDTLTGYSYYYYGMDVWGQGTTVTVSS VL: DIQMTQSPSSLSASVGDRVTITCRASQSISSYLNWYQQKPGKAPKLLIYNARRLGSGVPSRFSGSGSGTDFTLTISSLQPEDFATYYCQQYRSSPVTFGGGTKVEIKR
Result: 0.61 nM
